test system: 616215-338-R-J1-PDC complex spheroids, viability % test/control; assay: Anticancer human tumor 616215-338-R-J1-PDC patient-derived colon adenocarcinoma cell line growth inhibition [CLK]; conditions: curve of first compound; second compound 0.0316 µM;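 further: spheroids exposed to agents for 7 days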
pIC50: −log10 of the molar value.

COMPOUND	STUDY SYSTEM	pIC50
O=c1[nH]cc(F)c(=O)[nH]1 + CNC(=O)c1ccc(Nc2nc(OC3CCCC3)c3c(-c4ccc5nc(C)oc5c4)c[nH]c3n2)c(OC)c1	616215-338-R-J1-PDC complex spheroids, viability % test/control	6.15
Cn1ncnc1[C@H]1c2n[nH]c(=O)c3cc(F)cc(c23)N[C@@H]1c1ccc(F)cc1 + CN1CCN(c2cc(C(=O)Nc3cc4cc(-c5cnn(C)c5)ccc4cn3)ccn2)CC1	616215-338-R-J1-PDC complex spheroids, viability % test/control	< 7.00
Cn1ncnc1[C@H]1c2n[nH]c(=O)c3cc(F)cc(c23)N[C@@H]1c1ccc(F)cc1 + CNC(=O)c1ccc(Nc2nc(OC3CCCC3)c3c(-c4ccc5nc(C)oc5c4)c[nH]c3n2)c(OC)c1	616215-338-R-J1-PDC complex spheroids, viability % test/control	< 7.00
